The reported numbers originate from paper PMC5616206.

- EXPERIMENT DESCRIPTION: Toxicokinetics of S9229 in the 28-day rat study
- Type: in vivo, Sprague-Dawley rats
- EXPERIMENTAL PARAMETERS: male, Sprague-Dawley [Crl:CD(SD)], rat, plasma, po, 30 mg/kg, Cmax, Day 28, 30 mg/kg bw, M

MOLECULE	Cmax (ng/mL)
COC[C@@H](CC(C)C)NC(=O)c1ccc(C)c(C)c1	6.8

* * *

- EXPERIMENT DESCRIPTION: Pharmacokinetics of S9229 in rats, single iv or oral dose
- Assay type: in vivo, Sprague-Dawley rats
- EXPERIMENTAL PARAMETERS: female, Sprague-Dawley, rat, plasma, po, 100 mg/kg

MOLECULE	AUC(0-t)
COC[C@@H](CC(C)C)NC(=O)c1ccc(C)c(C)c1 [S9229]	175 ng·h/mL

* * *

- EXPERIMENT DESCRIPTION: Pharmacokinetics of S807 in rats, single iv or oral dose
- Assay type: in vivo, Sprague-Dawley rats
- EXPERIMENTAL PARAMETERS: male, Sprague-Dawley, rat, plasma, po, 50 mg/kg
RESULT TYPE: bioavailability (%)

MOLECULE	DATA VALUE
CCCC(CCC)NC(=O)c1ccc2c(c1)OCO2 [S807]	19.9

* * *

- EXPERIMENT DESCRIPTION: Pharmacokinetics of S807 in rats, single iv or oral dose
- Type: in vivo, Sprague-Dawley rats
- EXPERIMENTAL PARAMETERS: female, Sprague-Dawley, rat, plasma, iv, 1 mg/kg

MOLECULE	UNITS TEXT	Cmax
CCCC(CCC)NC(=O)c1ccc2c(c1)OCO2	ng/mL	949

* * *

- EXPERIMENT DESCRIPTION: Pharmacokinetics of S807 in rats, single iv or oral dose
- Format: in vivo, Sprague-Dawley rats
- EXPERIMENTAL PARAMETERS: male, Sprague-Dawley, rat, plasma, po, 50 mg/kg

MOLECULE	Tmax [h]
CCCC(CCC)NC(=O)c1ccc2c(c1)OCO2	1.5

* * *

- EXPERIMENT DESCRIPTION: Toxicokinetics of S9229 in the 28-day rat study
- Assay type: in vivo, Sprague-Dawley rats
- EXPERIMENTAL PARAMETERS: female, Sprague-Dawley (Crl:CD(SD)), rat, plasma, po, 100 mg/kg, Tmax, Day 1, 100 mg/kg bw, F

MOLECULE	Tmax
COC[C@@H](CC(C)C)NC(=O)c1ccc(C)c(C)c1	30 min

* * *

- EXPERIMENT DESCRIPTION: Toxicokinetics of S9229 in the 28-day rat study
- Format: in vivo, Sprague-Dawley rats
- EXPERIMENTAL PARAMETERS: female, Sprague-Dawley (Crl:CD(SD)), rat, plasma, po, 10 mg/kg, AUC0-24hr, Day 1, 10 mg/kg bw, F

MOLECULE	AUC(0-t)
COC[C@@H](CC(C)C)NC(=O)c1ccc(C)c(C)c1	11.4 ng·h/mL

* * *

- EXPERIMENT DESCRIPTION: Toxicokinetics of S9229 in the 28-day rat study
- Type: in vivo, Sprague-Dawley rats
- EXPERIMENTAL PARAMETERS: male, Sprague-Dawley [Crl:CD(SD)], rat, plasma, po, 30 mg/kg, Tmax, Day 28, 30 mg/kg bw, M

COMPOUND	UNITS TEXT	Tmax
COC[C@@H](CC(C)C)NC(=O)c1ccc(C)c(C)c1 [S9229]	h	1

* * *

- EXPERIMENT DESCRIPTION: Pharmacokinetics of S9229 in rats, single iv or oral dose
- Type: in vivo, Sprague-Dawley rats
- EXPERIMENTAL PARAMETERS: male, Sprague-Dawley, rat, plasma, po, 100 mg/kg
RESULT TYPE: Cmax (ng/mL)

COMPOUND	RESULT TYPE	UNITS TEXT	DATA VALUE
COC[C@@H](CC(C)C)NC(=O)c1ccc(C)c(C)c1 [S9229]	Cmax	ng/mL	52.3

* * *

- EXPERIMENT DESCRIPTION: Toxicokinetics of S9229 in the 28-day rat study
- Type: in vivo, Sprague-Dawley rats
- EXPERIMENTAL PARAMETERS: male, Sprague-Dawley (Crl:CD(SD)), rat, plasma, po, 100 mg/kg, Cmax, Day 28, 100 mg/kg bw, M

COMPOUND	Cmax / ng/mL
COC[C@@H](CC(C)C)NC(=O)c1ccc(C)c(C)c1 [S9229]	40.3

* * *

- EXPERIMENT DESCRIPTION: Pharmacokinetics of S9229 in rats, single iv or oral dose
- Assay type: in vivo, Sprague-Dawley rats
- EXPERIMENTAL PARAMETERS: male, Sprague-Dawley, rat, plasma, po, 30 mg/kg
RESULT TYPE: AUC(0-t) (ng·h/mL)

MOLECULE	DATA VALUE
COC[C@@H](CC(C)C)NC(=O)c1ccc(C)c(C)c1	20.6

* * *

- EXPERIMENT DESCRIPTION: Pharmacokinetics of S9229 in rats, single iv or oral dose
- Format: in vivo, Sprague-Dawley rats
- EXPERIMENTAL PARAMETERS: male, Sprague-Dawley, rat, plasma, po, 10 mg/kg
RESULT TYPE: Cmax (ng/mL)

MOLECULE	DATA VALUE
COC[C@@H](CC(C)C)NC(=O)c1ccc(C)c(C)c1	19.4

* * *

- EXPERIMENT DESCRIPTION: Pharmacokinetics of S9229 in rats, single iv or oral dose
- Format: in vivo, Sprague-Dawley rats
- EXPERIMENTAL PARAMETERS: male, Sprague-Dawley, rat, plasma, iv, 1 mg/kg
RESULT TYPE: Cmax (ng/mL)

MOLECULE	RESULT TYPE	DATA VALUE
COC[C@@H](CC(C)C)NC(=O)c1ccc(C)c(C)c1	Cmax	3650

* * *

- EXPERIMENT DESCRIPTION: Toxicokinetics of S9229 in the 28-day rat study
- Format: in vivo, Sprague-Dawley rats
- EXPERIMENTAL PARAMETERS: female, Sprague-Dawley (Crl:CD(SD)), rat, plasma, po, 10 mg/kg, Tmax, Day 1, 10 mg/kg bw, F
RESULT TYPE: Tmax (min)

MOLECULE	DATA VALUE
COC[C@@H](CC(C)C)NC(=O)c1ccc(C)c(C)c1	30

* * *

- EXPERIMENT DESCRIPTION: Toxicokinetics of S9229 in the 28-day rat study
- Type: in vivo, Sprague-Dawley rats
- EXPERIMENTAL PARAMETERS: female, Sprague-Dawley (Crl:CD(SD)), rat, plasma, po, 30 mg/kg, Tmax, Day 28, 30 mg/kg bw, F

MOLECULE	UNITS TEXT	Tmax
COC[C@@H](CC(C)C)NC(=O)c1ccc(C)c(C)c1 [S9229]	h	1

* * *

- EXPERIMENT DESCRIPTION: Toxicokinetics of S9229 in the 28-day rat study
- Assay type: in vivo, Sprague-Dawley rats
- EXPERIMENTAL PARAMETERS: male, Sprague-Dawley [Crl:CD(SD)], rat, plasma, po, 30 mg/kg, AUC0-24hr, Day 28, 30 mg/kg bw, M
RESULT TYPE: AUC(0-t) (ng·h/mL)

MOLECULE	RESULT TYPE	UNITS TEXT	DATA VALUE
COC[C@@H](CC(C)C)NC(=O)c1ccc(C)c(C)c1	AUC(0-t)	ng·h/mL	15.6

* * *

- EXPERIMENT DESCRIPTION: Pharmacokinetics of S9229 in rats, single iv or oral dose
- Type: in vivo, Sprague-Dawley rats
- EXPERIMENTAL PARAMETERS: male, Sprague-Dawley, rat, plasma, iv, 1 mg/kg
RESULT TYPE: Tmax (min)

COMPOUND	RESULT TYPE	DATA VALUE
COC[C@@H](CC(C)C)NC(=O)c1ccc(C)c(C)c1 [S9229]	Tmax	1.8

* * *

- EXPERIMENT DESCRIPTION: Toxicokinetics of S9229 in the 28-day rat study
- Format: in vivo, Sprague-Dawley rats
- EXPERIMENTAL PARAMETERS: male, Sprague-Dawley (Crl:CD(SD)), rat, plasma, po, 10 mg/kg, Cmax, Day 28, 10 mg/kg bw, M

MOLECULE	Cmax, ng/mL
COC[C@@H](CC(C)C)NC(=O)c1ccc(C)c(C)c1	1.2

* * *

- EXPERIMENT DESCRIPTION: Pharmacokinetics of S807 in rats, single iv or oral dose
- Type: in vivo, Sprague-Dawley rats
- EXPERIMENTAL PARAMETERS: male, Sprague-Dawley, rat, plasma, po, 200 mg/kg
RESULT TYPE: Tmax (h)

MOLECULE	DATA VALUE
CCCC(CCC)NC(=O)c1ccc2c(c1)OCO2	4

* * *

- EXPERIMENT DESCRIPTION: Pharmacokinetics of S9229 in rats, single iv or oral dose
- Assay type: in vivo, Sprague-Dawley rats
- EXPERIMENTAL PARAMETERS: male, Sprague-Dawley, rat, plasma, po, 10 mg/kg
RESULT TYPE: AUC(0-t) (ng·h/mL)

MOLECULE	RESULT TYPE	UNITS TEXT	DATA VALUE
COC[C@@H](CC(C)C)NC(=O)c1ccc(C)c(C)c1	AUC(0-t)	ng·h/mL	11.3
